target: EPHA3 (human) (UniProt P29320); experiment: KINOMEscan competition binding; conditions: compound 10.0 µM
Sequence (P29320 whole entry, looked up): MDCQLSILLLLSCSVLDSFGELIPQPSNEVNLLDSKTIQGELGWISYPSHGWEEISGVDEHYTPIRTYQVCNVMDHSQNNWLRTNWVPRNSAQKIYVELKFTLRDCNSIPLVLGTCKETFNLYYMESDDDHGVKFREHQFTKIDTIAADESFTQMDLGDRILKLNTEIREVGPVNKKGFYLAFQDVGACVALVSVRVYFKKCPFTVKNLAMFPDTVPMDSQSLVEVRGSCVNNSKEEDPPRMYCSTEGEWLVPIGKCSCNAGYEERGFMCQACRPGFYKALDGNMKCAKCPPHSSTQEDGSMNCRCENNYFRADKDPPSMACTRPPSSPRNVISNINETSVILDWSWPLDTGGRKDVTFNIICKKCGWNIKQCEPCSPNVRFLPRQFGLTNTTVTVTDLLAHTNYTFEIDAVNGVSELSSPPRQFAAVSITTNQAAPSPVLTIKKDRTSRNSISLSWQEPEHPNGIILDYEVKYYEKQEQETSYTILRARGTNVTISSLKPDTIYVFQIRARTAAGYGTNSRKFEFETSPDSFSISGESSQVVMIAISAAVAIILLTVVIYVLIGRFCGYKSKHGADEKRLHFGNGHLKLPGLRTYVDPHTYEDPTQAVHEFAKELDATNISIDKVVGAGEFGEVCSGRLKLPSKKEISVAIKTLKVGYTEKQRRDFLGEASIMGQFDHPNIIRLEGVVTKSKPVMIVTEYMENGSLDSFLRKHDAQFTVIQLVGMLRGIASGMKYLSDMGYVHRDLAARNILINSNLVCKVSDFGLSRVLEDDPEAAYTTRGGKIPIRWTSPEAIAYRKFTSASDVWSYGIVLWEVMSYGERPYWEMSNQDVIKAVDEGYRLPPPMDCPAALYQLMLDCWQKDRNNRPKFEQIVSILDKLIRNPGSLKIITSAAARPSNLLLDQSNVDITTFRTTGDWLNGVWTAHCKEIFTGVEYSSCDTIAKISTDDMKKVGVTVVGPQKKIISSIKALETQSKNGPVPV
recorded-endpoint: kinase still bound, per cent of control (%)
Response body: numeric value in %, unit text excluded.

What does the record list as kinase still bound, per cent of control for Cc1ccc(NC(=O)c2cccc(C(C)(C)C#N)c2)cc1Nc1ccc2ncn(C)c(=O)c2c1 ?
5.1

Which kinase still bound, per cent of control is reported for this compound? Nc1ccc(-c2ccc3ncc4ccc(=O)n(-c5cccc(C(F)(F)F)c5)c4c3c2)cn1
86

Given the entry CCCS(=O)(=O)Nc1ccc(F)c(C(=O)c2c[nH]c3ncc(-c4ccc(Cl)cc4)cc23)c1F , report its measured kinase still bound, per cent of control.
44

Look up kinase still bound, per cent of control: Cc1cc([C@@H](C)Nc2ccccc2C(=O)O)c2nc(N3CCOCC3)cc(=O)n2c1
79

What value of kinase still bound, per cent of control has been reported for the following compound? CN(C)C/C=C/C(=O)Nc1cccc(Nc2ncc3c(n2)N(C)c2ccccc2C(=O)N3C)c1
43

Looking for the measured kinase still bound, per cent of control of CCN1CCN(Cc2ccc(Nc3ncc4c(n3)N(C)c3ccccc3C(=O)N4C)cc2C(F)(F)F)CC1 , can you help?
100

---

kinase still bound, per cent of control reference
test system: FLT3 (human), P36888 [ITD]; assay: KINOMEscan competition binding; details: compound 10.0 µM
Sequence (P36888 whole entry, looked up, change not shown): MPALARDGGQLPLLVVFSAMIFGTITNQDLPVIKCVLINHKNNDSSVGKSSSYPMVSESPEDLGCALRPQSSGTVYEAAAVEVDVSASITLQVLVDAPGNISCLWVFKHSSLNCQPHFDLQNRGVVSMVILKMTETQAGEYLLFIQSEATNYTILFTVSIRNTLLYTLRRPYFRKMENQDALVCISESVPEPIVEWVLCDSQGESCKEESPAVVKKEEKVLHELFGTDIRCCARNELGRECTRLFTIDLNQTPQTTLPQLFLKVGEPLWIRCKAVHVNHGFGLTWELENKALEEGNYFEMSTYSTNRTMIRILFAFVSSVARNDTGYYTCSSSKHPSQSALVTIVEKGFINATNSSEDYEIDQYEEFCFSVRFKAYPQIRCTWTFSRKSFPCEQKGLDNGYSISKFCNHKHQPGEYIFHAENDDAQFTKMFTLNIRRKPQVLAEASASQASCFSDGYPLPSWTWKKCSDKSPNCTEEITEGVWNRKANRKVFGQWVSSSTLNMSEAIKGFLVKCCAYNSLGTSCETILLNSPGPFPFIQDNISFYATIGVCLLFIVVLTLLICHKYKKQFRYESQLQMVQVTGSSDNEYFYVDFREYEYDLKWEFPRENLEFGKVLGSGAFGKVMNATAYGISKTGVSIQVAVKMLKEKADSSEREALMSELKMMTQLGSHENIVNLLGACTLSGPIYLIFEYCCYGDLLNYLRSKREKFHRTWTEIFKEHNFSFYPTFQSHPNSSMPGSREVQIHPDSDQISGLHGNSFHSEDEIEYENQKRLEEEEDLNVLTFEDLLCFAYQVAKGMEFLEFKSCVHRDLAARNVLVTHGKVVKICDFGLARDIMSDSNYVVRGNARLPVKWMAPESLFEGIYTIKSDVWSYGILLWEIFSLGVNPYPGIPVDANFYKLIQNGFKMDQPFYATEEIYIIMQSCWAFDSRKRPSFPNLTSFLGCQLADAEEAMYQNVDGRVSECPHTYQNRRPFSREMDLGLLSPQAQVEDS
Just the number please, in %, no unit attached.

Recorded kinase still bound, per cent of control, per entry:
compound=N#Cc1cc(-c2ccnc(Nc3ccc(-n4cnc(-c5cccnc5)n4)cc3)n2)cc(N2CCOCC2)c1 numeric_value=28
compound=CCN1CCN(Cc2ccc(Nc3ncc4c(n3)N(C)c3ccccc3C(=O)N4C)cc2C(F)(F)F)CC1 numeric_value=19

Item CC(=O)c1c(C)c2cnc(Nc3ccc(N4CCNCC4)cn3)nc2n(C2CCCC2)c1=O has what recorded kinase still bound, per cent of control?
20

Quick one: kinase still bound, per cent of control for CS(=O)(=O)N1CCN(Cc2cc3nc(-c4cccc5[nH]ncc45)nc(N4CCOCC4)c3s2)CC1 ?
100

Consider the compound COCC(=O)NC/C=C/c1ccc2ncnc(Nc3ccc(Oc4ccc(C)nc4)c(C)c3)c2c1 and give its measured kinase still bound, per cent of control.
87

Which measured kinase still bound, per cent of control value corresponds to COc1cc(C(=O)N2CCC(N3CCN(C)CC3)CC2)ccc1Nc1ncc2c(n1)N(C)c1ccccc1C(=O)N2C ?
100

Please report the recorded kinase still bound, per cent of control for COc1cc(C(=O)NC2CCN(C)CC2)ccc1Nc1ncc2c(n1)N(C1CCCC1)CCC(=O)N2C(C)C .
100

---

molecular target: MAP3K9 (human); test: KINOMEscan competition binding; conditions: compound 10.0 µM
recorded-endpoint: kinase still bound, per cent of control (%)
Reply with just the number (in %).

// known answers, use as guide
compound=CCOc1cc2ncc(C#N)c(Nc3ccc(OCc4ccccn4)c(Cl)c3)c2cc1NC(=O)/C=C/CN(C)C recorded_endpoint="kinase still bound, per cent of control" unit_symbol=% numeric_value=84
compound=Cc1ccc(C(=O)Nc2cccc(C(F)(F)F)c2)cc1Nc1cncc(C(N)=O)c1 recorded_endpoint="kinase still bound, per cent of control" unit_symbol=% numeric_value=100
compound=Cc1ccc2nc(NCCN)c3ncc(C)n3c2c1 recorded_endpoint="kinase still bound, per cent of control" unit_symbol=% numeric_value=100
compound=CCCS(=O)(=O)Nc1ccc(F)c(C(=O)c2c[nH]c3ncc(-c4ccc(Cl)cc4)cc23)c1F recorded_endpoint="kinase still bound, per cent of control" unit_symbol=% numeric_value=52
compound=COc1cc(C(=O)NC2CCN(C)CC2)ccc1Nc1ncc2c(n1)N(C1CCCC1)CCC(=O)N2C(C)C recorded_endpoint="kinase still bound, per cent of control" unit_symbol=% numeric_value=100

Find the recorded kinase still bound, per cent of control belonging to COc1cc(C(=O)NC2CCN(C)CC2)ccc1Nc1ncc2c(n1)N(C1CCCC1)C(C)CC(=O)N2C (centres undefined) and report it.
100

Please look up its kinase still bound, per cent of control: OCCCNc1cc(-c2ccnc(Nc3cccc(Cl)c3)n2)ccn1
100

Any idea what its kinase still bound, per cent of control is? The compound is O=C(O)c1ccc(Nc2ncc3c(n2)-c2ccc(Cl)cc2C(c2c(F)cccc2F)=NC3)cc1
70

What does the data say about its kinase still bound, per cent of control? Entry: Nc1ccc(-c2ccc3ncc4ccc(=O)n(-c5cccc(C(F)(F)F)c5)c4c3c2)cn1
100
